Target of assay: ~100 representative kinases (Homo sapiens, UniProt P22830)
Construct: Recombinant protein kinase domains with a concentration of 2 μM
Sequence (P22830 55-423): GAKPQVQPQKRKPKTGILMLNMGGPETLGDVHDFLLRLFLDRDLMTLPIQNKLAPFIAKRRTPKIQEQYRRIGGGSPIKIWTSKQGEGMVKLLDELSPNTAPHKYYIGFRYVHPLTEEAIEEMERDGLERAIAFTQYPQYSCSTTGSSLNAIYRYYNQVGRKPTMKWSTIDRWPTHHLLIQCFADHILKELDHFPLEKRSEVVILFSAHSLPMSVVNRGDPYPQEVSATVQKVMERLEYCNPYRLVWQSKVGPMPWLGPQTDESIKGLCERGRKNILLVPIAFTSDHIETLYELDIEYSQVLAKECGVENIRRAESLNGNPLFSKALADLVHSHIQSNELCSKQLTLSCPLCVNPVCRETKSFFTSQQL
Test description: DSF 100 kinase selectivity screen;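 further: compound tested at 20 µM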
Assay type: binding
Experimental parameters: protein FECH; average of three replicates
Listing of entries alongside the reported dTm.
Supply the numeric figure in K, leaving out any unit text.

A selection of reference data follows.
O=C(Nc1cccc(-c2c[nH]c3ncnc(N4CCOCC4)c23)c1)C1(C(=O)Nc2ccc(F)c(Cl)c2)CC1 | -2.64
O=C(Nc1cc(F)cc(Br)c1)C1(C(=O)Nc2cccc(-c3c[nH]c4ncnc(N5CCOCC5)c34)c2)CC1 | -2.87
Cc1cc(F)ccc1NC(=O)C1(C(=O)Nc2cccc(-c3c[nH]c4ncnc(N5CCOCC5)c34)c2)CC1 | 0.38
CC(C)(C)c1cccc(NC(=O)C2(C(=O)Nc3cccc(-c4c[nH]c5ncnc(N6CCOCC6)c45)c3)CC2)c1 | -3.46

GET /values?readout=dTm&item= `Cc1ccc(-n2nc(C(C)(C)C)cc2NC(=O)Nc2cccc(-c3c[nH]c4ncnc(N5CCOCC5)c34)c2)cc1` -10.48

GET /values?readout=dTm&item= `Cc1ccc(C(=O)Nc2ccc(CN3CCN(C)CC3)c(C(F)(F)F)c2)cc1C#Cc1c[nH]c2ncnc(N3CCOCC3)c12` 0.00

GET /values?readout=dTm&item= `Cc1cc(NC(=O)C2(C(=O)Nc3cccc(-c4c[nH]c5ncnc(N6CCOCC6)c45)c3)CC2)ccc1F` 2.57

GET /values?readout=dTm&item= `COc1cc(C(=O)N2CCOCC2)c(F)cc1Nc1nc(N(C)C)c2c(Cl)c[nH]c2n1` -1.01

GET /values?readout=dTm&item= `O=C(Nc1cccc(-c2c[nH]c3ncnc(N4CCOCC4)c23)c1)C1(C(=O)Nc2cc(Br)c(F)cc2F)CC1` -0.79

----------
Listing of entries alongside the reported dTm.
Target of assay: ~100 representative kinases (Homo sapiens)
Construct: Recombinant protein kinase domains with a concentration of 2 μM
Sequence (P33981 1-857): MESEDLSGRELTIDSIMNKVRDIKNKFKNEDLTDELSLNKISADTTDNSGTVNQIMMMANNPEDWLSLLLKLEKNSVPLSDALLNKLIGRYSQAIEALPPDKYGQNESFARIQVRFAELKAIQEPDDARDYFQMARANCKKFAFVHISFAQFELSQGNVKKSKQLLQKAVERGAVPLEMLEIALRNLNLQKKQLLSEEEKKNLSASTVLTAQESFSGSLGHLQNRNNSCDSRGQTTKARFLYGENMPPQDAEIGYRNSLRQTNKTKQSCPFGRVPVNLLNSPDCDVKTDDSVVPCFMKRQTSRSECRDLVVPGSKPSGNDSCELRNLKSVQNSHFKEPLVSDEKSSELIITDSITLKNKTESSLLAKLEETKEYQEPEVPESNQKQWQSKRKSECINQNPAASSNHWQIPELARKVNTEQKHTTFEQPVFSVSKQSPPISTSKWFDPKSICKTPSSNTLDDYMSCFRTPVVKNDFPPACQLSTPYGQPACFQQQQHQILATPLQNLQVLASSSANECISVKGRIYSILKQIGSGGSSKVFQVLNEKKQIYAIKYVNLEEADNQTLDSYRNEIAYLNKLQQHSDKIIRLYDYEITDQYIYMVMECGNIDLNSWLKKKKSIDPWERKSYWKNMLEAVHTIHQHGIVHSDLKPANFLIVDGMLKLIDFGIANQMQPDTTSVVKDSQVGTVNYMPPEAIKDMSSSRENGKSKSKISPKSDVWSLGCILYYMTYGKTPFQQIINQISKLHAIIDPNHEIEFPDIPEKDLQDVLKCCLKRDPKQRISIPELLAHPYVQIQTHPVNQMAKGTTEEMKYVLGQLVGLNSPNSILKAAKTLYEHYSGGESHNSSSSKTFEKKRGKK
Test description: DSF 100 kinase selectivity screen;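 further: compound tested at 20 µM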
Type: binding
Experimental parameters: Protein TTK; DSF; average of three replicates
Supply the numeric figure in K, leaving out any unit text.

C[C@@H]1CN(c2cc(-c3n[nH]c4ccc(OC5(C)CC5)cc34)ncn2)C[C@H](C)O1 | 5.63

Moving on to the next compound.
Request: dTm, test system ~100 representative kinases (Homo sapiens), entry `Cc1cc(F)ccc1NC(=O)C1(C(=O)Nc2cccc(-c3c[nH]c4ncnc(N5CCOCC5)c34)c2)CC1` 2.46

----------
Target of assay: LRRK2^RCKW (Homo sapiens)
Construct: LRRK2 R1327 to E2527; His6-Z-tag (TEV cleavable) (N, cleaved yes); host or cells: Sf9 insect cells (baculovirus)
Sequence (Q5S007 1327-2527): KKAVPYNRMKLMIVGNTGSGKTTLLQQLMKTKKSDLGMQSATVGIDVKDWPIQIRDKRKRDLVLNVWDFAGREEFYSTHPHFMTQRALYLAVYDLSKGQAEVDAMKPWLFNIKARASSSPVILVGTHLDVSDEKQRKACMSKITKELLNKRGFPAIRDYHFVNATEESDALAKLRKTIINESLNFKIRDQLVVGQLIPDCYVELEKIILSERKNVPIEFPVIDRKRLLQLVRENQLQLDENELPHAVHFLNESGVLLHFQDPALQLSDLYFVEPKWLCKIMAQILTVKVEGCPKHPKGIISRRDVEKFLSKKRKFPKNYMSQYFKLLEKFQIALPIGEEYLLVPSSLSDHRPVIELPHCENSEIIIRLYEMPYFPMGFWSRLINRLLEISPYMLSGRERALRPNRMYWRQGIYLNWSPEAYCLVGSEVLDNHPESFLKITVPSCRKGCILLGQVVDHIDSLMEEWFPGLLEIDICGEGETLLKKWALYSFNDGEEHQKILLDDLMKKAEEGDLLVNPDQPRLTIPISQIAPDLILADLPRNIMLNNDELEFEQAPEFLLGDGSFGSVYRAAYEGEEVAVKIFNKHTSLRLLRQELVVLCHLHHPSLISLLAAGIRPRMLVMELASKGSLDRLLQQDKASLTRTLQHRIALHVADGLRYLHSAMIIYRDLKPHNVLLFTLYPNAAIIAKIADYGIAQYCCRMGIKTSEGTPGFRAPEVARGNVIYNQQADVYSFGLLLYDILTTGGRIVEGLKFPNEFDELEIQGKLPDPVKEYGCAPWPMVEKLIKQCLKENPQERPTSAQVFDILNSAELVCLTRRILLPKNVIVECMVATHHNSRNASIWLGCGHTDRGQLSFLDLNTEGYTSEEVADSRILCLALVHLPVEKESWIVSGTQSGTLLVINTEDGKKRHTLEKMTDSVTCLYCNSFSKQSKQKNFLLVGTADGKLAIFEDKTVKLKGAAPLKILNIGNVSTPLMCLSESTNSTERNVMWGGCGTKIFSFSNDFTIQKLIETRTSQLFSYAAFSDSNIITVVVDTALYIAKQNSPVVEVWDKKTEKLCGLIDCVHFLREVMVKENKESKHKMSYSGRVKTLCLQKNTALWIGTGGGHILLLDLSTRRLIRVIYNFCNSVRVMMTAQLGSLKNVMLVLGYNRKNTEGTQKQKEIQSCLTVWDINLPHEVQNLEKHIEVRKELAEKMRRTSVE
Test description: Biochemical LRRK2 activity assay (PhosphoSense, AssayQuant SOX peptide AQT0615)
Experimental parameters: Table S2, bound printed in μM under head IC50 [nM]
Parameter measured: IC50

Request: IC50, test system LRRK2^RCKW (Homo sapiens), entry O=C(Nc1ccc(F)cc1)C1(C(=O)Nc2cccc(-c3ccc4n[nH]cc4c3)c2)CC1 [Compound 47] > 15 µM

----------
Target of assay: ~100 representative kinases (Homo sapiens, UniProt Q6PHR2)
Construct: Recombinant protein kinase domains with a concentration of 2 μM
Sequence (Q6PHR2 whole entry, the tested form may be a part): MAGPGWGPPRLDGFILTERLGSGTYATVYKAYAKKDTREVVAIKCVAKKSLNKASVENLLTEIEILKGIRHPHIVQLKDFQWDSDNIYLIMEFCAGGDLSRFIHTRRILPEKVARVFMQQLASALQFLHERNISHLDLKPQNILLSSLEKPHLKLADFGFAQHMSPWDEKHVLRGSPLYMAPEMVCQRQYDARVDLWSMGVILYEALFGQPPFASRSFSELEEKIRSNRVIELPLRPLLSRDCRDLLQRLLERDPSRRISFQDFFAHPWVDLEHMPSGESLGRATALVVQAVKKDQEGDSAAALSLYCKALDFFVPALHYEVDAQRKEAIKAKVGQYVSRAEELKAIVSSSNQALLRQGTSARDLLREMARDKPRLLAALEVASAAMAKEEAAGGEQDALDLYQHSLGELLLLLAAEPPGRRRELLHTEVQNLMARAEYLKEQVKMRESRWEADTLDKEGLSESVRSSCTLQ
Test description: DSF 100 kinase selectivity screen;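 further: compound tested at 20 µM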
Assay type: binding
Experimental parameters: Protein ULK3; DSF; average of three replicates
Parameter measured: dTm (K)
Supply the numeric figure in K, leaving out any unit text.

A selection of reference data follows.
Cc1ccc(C(=O)Nc2ccc(CN3CCN(C)CC3)c(C(F)(F)F)c2)cc1C#Cc1c[nH]c2ncnc(N3CCOCC3)c12 | 9.22
O=C(Nc1cccc(-c2c[nH]c3ncnc(N4CCOCC4)c23)c1)C1(C(=O)Nc2ccc(F)c(Br)c2F)CC1 | 7.33
O=C(Nc1cccc(-c2c[nH]c3ncnc(N4CCOCC4)c23)c1)C1(C(=O)Nc2ccc(F)c(F)c2)CC1 | 7.52

Moving on to the next compound.
GET /values?readout=dTm&item= `Cc1cc(NC(=O)C2(C(=O)Nc3ccc(F)cc3)CC2)cc(-c2c[nH]c3ncnc(N4CCOCC4)c23)c1` 3.31

----------
Target of assay: ~100 representative kinases (Homo sapiens)
Construct: Recombinant protein kinase domains with a concentration of 2 μM
Test description: DSF 100 kinase selectivity screen;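 further: compound tested at 20 µM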
Type: binding
Experimental parameters: Protein WNK1; DSF; average of three replicates
Listing of entries alongside the reported dTm.
Supply the numeric figure in K, leaving out any unit text.

A selection of reference data follows.
O=C(Nc1ccc(Cl)cc1)C1(C(=O)Nc2cccc(-c3c[nH]c4ncnc(N5CCOCC5)c34)c2)CC1 | 0.30
CCNc1nc(Nc2cc(F)c(C(=O)N3CCOCC3)cc2OC)ncc1C(F)(F)F | -0.0645
C[C@@H]1CN(c2cc(-c3n[nH]c4ccc(OC5(C)CC5)cc34)ncn2)C[C@H](C)O1 | 0.19

Request: dTm, test system ~100 representative kinases (Homo sapiens), entry `Cc1ccc(-n2nc(C(C)(C)C)cc2NC(=O)Nc2cccc(-c3c[nH]c4nc(Cl)nc(N5CCOCC5)c34)c2)cc1` -0.58

----------
Target of assay: ~100 representative kinases (Homo sapiens)
Construct: Recombinant protein kinase domains with a concentration of 2 μM
Test description: DSF 100 kinase selectivity screen;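 further: compound tested at 20 µM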
Format: binding
Experimental parameters: Protein CSNK1D; average of three replicates
Parameter measured: dTm (K)
Supply the numeric figure in K, leaving out any unit text.

A selection of reference data follows.
O=C(Nc1ccc(F)cc1)C1(C(=O)Nc2cccc(-c3c[nH]c4ncnc(N5CCOCC5)c34)c2)CC1 | 2.09
COc1cc2c(Oc3ccc(NC(=O)C4(C(=O)Nc5ccc(F)cc5)CC4)cc3F)ccnc2cc1OCCCN1CCOCC1 [Foretinib, reference compound] | 0.91
Cc1cc(NC(=O)C2(C(=O)Nc3cccc(-c4c[nH]c5ncnc(N6CCOCC6)c45)c3)CC2)ccc1F | 3.49
Cn1cc(-c2c[nH]c3ncnc(N4CCOCC4)c23)cc1C#N | 0.63
Cc1ccc(C(=O)Nc2ccc(CN3CCN(C)CC3)c(C(F)(F)F)c2)cc1C#Cc1c[nH]c2ncnc(N3CCOCC3)c12 | 0.0454
Cc1cc(NC(=O)C2(C(=O)Nc3ccc(F)cc3)CC2)cc(-c2c[nH]c3ncnc(N4CCOCC4)c23)c1 | 1.10

GET /values?readout=dTm&item= `CC(C)(C)c1cccc(NC(=O)C2(C(=O)Nc3cccc(-c4c[nH]c5ncnc(N6CCOCC6)c45)c3)CC2)c1` -2.04

GET /values?readout=dTm&item= `COc1cc(C(=O)N2CCOCC2)c(F)cc1Nc1nc(N(C)C)c2c(Cl)c[nH]c2n1` 4.03

GET /values?readout=dTm&item= `CC(C)(C)c1cc(NC(=O)Nc2cccc(-c3c[nH]c4ncnc(N5CCOCC5)c34)c2)n(-c2ccc3ncccc3c2)n1` 1.22

This collection of values is drawn from paper PMC12136037.
